Molecular target: SARS-CoV-2 WT spike on rVSV-deltaG-Luc pseudovirus (SARS-CoV-2), P0DTC2
Assay: cell-based or functional assay
reportedMetric: pseudovirus neutralization IC50 (nM)
The answer is to be given in nM; state only the numeric part.

(Q) // query pseudovirus neutralization IC50 value for entry 5A6 VHH-Fc (Fc fusion) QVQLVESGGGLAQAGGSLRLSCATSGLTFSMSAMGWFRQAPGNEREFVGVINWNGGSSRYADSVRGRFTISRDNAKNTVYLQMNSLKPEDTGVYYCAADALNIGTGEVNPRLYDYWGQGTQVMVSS
(A) 8.57

(Q) Quick one: pseudovirus neutralization IC50 of 10B8 VHH-Fc (Fc fusion) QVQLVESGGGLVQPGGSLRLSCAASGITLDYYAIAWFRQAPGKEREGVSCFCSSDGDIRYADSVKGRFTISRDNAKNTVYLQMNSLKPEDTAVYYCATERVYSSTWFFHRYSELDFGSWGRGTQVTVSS ?
(A) 0.68

(Q) Given 15H1 VHH-Fc (Fc fusion) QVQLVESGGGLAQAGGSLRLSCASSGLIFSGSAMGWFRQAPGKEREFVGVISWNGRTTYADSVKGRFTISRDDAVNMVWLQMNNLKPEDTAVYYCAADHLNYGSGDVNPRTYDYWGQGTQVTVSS , state its recorded pseudovirus neutralization IC50.
(A) 5.04

(Q) Quick one: pseudovirus neutralization IC50 for 19E10 VHH-Fc (Fc fusion) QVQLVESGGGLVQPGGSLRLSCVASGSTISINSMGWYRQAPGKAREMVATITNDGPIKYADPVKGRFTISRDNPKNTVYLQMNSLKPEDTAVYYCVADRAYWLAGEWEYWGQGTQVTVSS ?
(A) 1.53

(Q) Please give the measured pseudovirus neutralization IC50 for this binder: 7A9 VHH-Fc (Fc fusion) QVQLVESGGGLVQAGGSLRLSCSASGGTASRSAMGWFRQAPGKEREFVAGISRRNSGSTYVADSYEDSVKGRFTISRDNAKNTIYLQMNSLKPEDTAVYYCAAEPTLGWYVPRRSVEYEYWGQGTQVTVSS
(A) 110

(Q) GET /values?readout=pseudovirus neutralization IC50&item= 1E4 VHH-Fc (Fc fusion) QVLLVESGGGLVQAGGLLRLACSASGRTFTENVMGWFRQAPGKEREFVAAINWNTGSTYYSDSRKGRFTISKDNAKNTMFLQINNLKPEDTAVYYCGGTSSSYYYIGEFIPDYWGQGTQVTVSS
(A) 0.31
